- Target Under Test: peanut extract (peanut ImmunoCAP F13)
- Measurement Protocol: ImmunoCAP, hybridoma supernatant
Test Readout: ImmunoCAP kUA/L (kUA/L)
Write the number in kUA/L without appending the unit.

Take a look at these entries with their results.
>  <Binder>
human IgE mAb 21C10 (antibody, V domains shown) VH: EVQLVESGGGLVKPGGSLRLSCAASGFILSRSSMSWVRQAPGKGLEWVSYISSTSSHIYYADSLKGRFTISRDNTENSVYLQMSSLRAEDTGVYYCARKTNGAWFLDLWGRGTLVTVSS VL: QSVLTQPPSVSGAPGQRVTISCTGSSSNIGAGSDVHWYQQFPGSAPHVLIYGNNQRPSGVPDRFSASKSGTSASLAITGLQADDEADYYCQSYDYDLSGSWVFGGGTKLTVL

>  <ImmunoCAP kUA/L, kUA/L>
715

$$$$
>  <Binder>
human IgE mAb 3C3 (antibody, V domains shown) VH: QLQLQESGPGLVKPSETLSLTCSISGASINSDDYYWGWIRQAPGEALEWIASIDASGTTFYNPSLRSRVTISVDTSTNQISLRLNSVTAADTAIYYCARRKTYYDFLTDYYNWYFDVWGRGTLVTVSS VL: QSALTQPRSVSGSPGQSVTFSCTGINSDIRDYDYVSWYQQHPGEAPKLIIYDVTKRASGVPSRFSGSKSGNTASLTISGLQAEDEADYYCCSYSVTYSFEVFGTGTQVSVL

>  <ImmunoCAP kUA/L, kUA/L>
3140

$$$$

Now for another entry.
Value lookup for ImmunoCAP kUA/L; key = human IgE mAb 7B6 (antibody, V domains shown) VH: QVQLQQWGAGLLKPSETLSLTCAVYGGSFNGYYWSWIRQPPGKGLEWIGEIDHSGSTNYNSSLKSRVTISVDTSKNQFSLKLSSVTAADTAVYYCARRRIGSLLKYFQDWGQGTLVTVSS VL: SYELTQPPSVSVSPGQTASITCSGDKLGDSYVCWYQLKPGQSPVLVIYQDTKRPSGIPERFSGSNSGNTATLTISETQAMDEADYYCQAWDTTTDWVFGGGTKLTVL
420
